# key: entry, value: growth, % of control
- experimental-details: qHTS profiling of the MIPE4 collection as inhibitors of Plasmodium falciparum (HB3) proliferation (AID 743347);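 note: plate controls were DMSO vehicle wells for no effect and artemisinin wells for full effect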
- condition-summary: P. falciparum HB3 in erythrocytes, SYBR Green DNA, 72 h; at 28.5 µM (top of the series) unless noted
outcome-measure: growth, % of control

| structure | value-observed |
| --- | --- |
| CN1CCC[C@H]1CCO[C@](C)(c1ccccc1)c1ccc(Cl)cc1 | 10.3% |
| CN(CC=CC#CC(C)(C)C)Cc1cccc2ccccc12 | 14.6% |
| c1ccc(-c2oc3ncnc(NC[C@@H]4CCCO4)c3c2-c2ccccc2)cc1 | 19.8% |
| CNc1nc(-c2ccc3c(N)n[nH]c3c2)cc(N2C[C@@H](C(=O)NC3CCCCC3)CC[C@@H]2C)n1 | 4.91% |
| C[C@@H]1CC=CC=CC=CC=C[C@@H](O[C@@H]2O[C@H](C)[C@@H](O)[C@H](N)[C@H]2O)C[C@@H]2O[C@](O)(C[C@@H](O)C[C@@H]3O[C@@H]3C=CC(=O)O1)C[C@H](O)[C@@H]2C(=O)O | 52.6% |
| CNC(=O)c1cc(COc2nnc(Nc3ccc(Cl)cc3)c3ccoc23)ccn1 | 48.2% |
| COc1cc(C=CC(=O)O)ccc1O | 82.4% |
| CC(C)=CCCC(C)=CCCC(C)=CCCC(C)=CCCC(C)=CCCC(C)=CCCC(C)=CCCC(C)=CCCC(C)=CCO | 100% |
| NS(=O)(=O)c1cc(Cl)c(Cl)c(S(N)(=O)=O)c1 | 98.5% |
| CC[C@H]1OC(=O)[C@H](C)[C@@H](O[C@H]2C[C@@](C)(OC)[C@@H](O)[C@H](C)O2)[C@H](C)[C@@H](O[C@@H]2O[C@H](C)C[C@H](N(C)C)[C@H]2O)[C@](C)(O)C[C@H](C)C(=NOCOCCOC)[C@H](C)[C@@H](O)[C@]1(C)O | 82.6% |
| O=C(O)CCNc1cc(N2CCc3ccccc3CC2)nc(-c2ccccn2)n1 | 5.23% |
| CC(C)N(CCCNC(=O)Nc1ccc(C(C)(C)C)cc1)C[C@H]1O[C@@H](n2cc(Br)c3c(N)ncnc32)[C@H](O)[C@H]1O | 7.54% |
| Cc1ccc(NC(=O)c2ccc(CN3CCN(C)CC3)cc2)cc1Nc1nc(-c2cccnc2)cs1 | 4.3% |
| CN(C)CCN(C)C(=O)c1ccc(NC(=O)Nc2ccc(-c3nc(N4CCOCC4)c4ccn(CC(F)(F)F)c4n3)cc2)cc1 | 5.21% |
| COc1ccc(-c2oc3c(CC=C(C)C)c(O)cc(O)c3c(=O)c2O)cc1 | 4.42% |
| Cc1nc(NC(=O)N2CCC[C@@H]2C(N)=O)sc1-c1csc(C(C)(C)C)n1 | 14.5% |
| CO[C@H]1O[C@@H]2O[C@@]3(C)CC[C@@H]4[C@@H](C)CC[C@@H]([C@H]1C)[C@@]24OO3 | 46% |
| C[C@@H]1CCO[C@H]2Cn3cc(C(=O)NCc4ccc(F)cc4F)c(=O)c(O)c3C(=O)N12 | 62.8% |
